TEST SUMMARY: inhibitors of Clostridioides difficile proliferation – 4-point retest, confirmation (AID 1224921);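 also: plate controls were DMSO wells for no effect and levofloxacin 16 µg/mL wells for full effect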
MEASUREMENT PARAMETERS: Clostridioides difficile clinical isolate growth, OD600, 24 h, stronger effect = lower value; at 30 µM unless noted
Screen size: about 1,400 compounds; about 350 (25%) were called active. Not shown: some 2% with an inconclusive outcome. A selection follows. Results with a measured potency or affinity are listed apart.
METRIC NAME: max activity

[
  {
    "CHEM SMILES": "COCCNC(=O)C[C@@H]1C[C@@H]2c3cc(NC(=O)Nc4ccc(C(F)(F)F)cc4)ccc3O[C@@H]2[C@H](CO)O1",
    "REPORTED VALUE": "9.41% (inactive)"
  },
  {
    "CHEM SMILES": "COCCNC(=O)C[C@H]1C[C@H]2c3cc(NC(=O)Nc4ccc(C(F)(F)F)cc4)ccc3O[C@H]2[C@@H](CO)O1",
    "REPORTED VALUE": "-9.02% (inactive)"
  },
  {
    "CHEM SMILES": "O=C(C[C@H]1C[C@H]2c3cc(NC(=O)Nc4ccc(C(F)(F)F)cc4)ccc3O[C@H]2[C@H](CO)O1)NCC1CC1",
    "REPORTED VALUE": "-13.1% [at 1.95 µM] (inactive)"
  },
  {
    "CHEM SMILES": "CC(C)CC#Cc1ccc2c(c1)O[C@@H](CN(C)Cc1cccnc1)[C@H](C)CN([C@@H](C)CO)S2(=O)=O",
    "REPORTED VALUE": "42% (inactive)"
  }
]

---

TEST SUMMARY: inhibitors of Clostridioides difficile proliferation – 4-point retest, confirmation (AID 1224921);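 also: plate controls were DMSO wells for no effect and levofloxacin 16 µg/mL wells for full effect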
MEASUREMENT PARAMETERS: Clostridioides difficile clinical isolate growth, OD600, 24 h, stronger effect = lower value; at 30 µM unless noted
Among all 1,400 compounds or so, about 350 (25%) were called active. About 2% were inconclusive and are not listed. A selection follows. Entries with a potency or affinity are not part of this list.
The compounds listed here are annotated with their max activity.

[
  {
    "CHEM SMILES": "CC(C)CC#Cc1ccc2c(c1)O[C@@H](CN(C)C(=O)c1ccccc1)[C@@H](C)CN([C@@H](C)CO)S2(=O)=O",
    "max activity": "35.1% (inactive)"
  },
  {
    "CHEM SMILES": "C[C@H]1CN([C@@H](C)CO)S(=O)(=O)c2ccc(C#CC3CC3)cc2O[C@@H]1CN(C)Cc1ccncc1",
    "max activity": "47% (inactive)"
  },
  {
    "CHEM SMILES": "CCCC(=O)Nc1ccc2c(c1)OC[C@@H](C)N(C(=O)c1ccccc1F)C[C@@H](C)[C@@H](OC)CN(C)C2=O",
    "max activity": "9.79% (inactive)"
  },
  {
    "CHEM SMILES": "CN(C)C(=O)C[C@@H]1CC[C@H](NC(=O)c2ccc(F)cc2)[C@H](CO)O1",
    "max activity": "-7.24% [at 1.95 µM] (inactive)"
  },
  {
    "CHEM SMILES": "N#C[C@H]1[C@@H](c2ccc(C#CC3CCCCC3)cc2)[C@@H](CO)N1C(=O)Cc1ccccn1",
    "max activity": "24.3% [at 0.5 µM] (inactive)"
  },
  {
    "CHEM SMILES": "COc1ccccc1C#Cc1ccc2c(c1)O[C@@H](CN(C)Cc1cccnc1)[C@H](C)CN([C@H](C)CO)S2(=O)=O",
    "max activity": "35.7% (inactive)"
  },
  {
    "CHEM SMILES": "O=C(N[C@H]1CC[C@@H](CCNS(=O)(=O)Cc2ccccc2)O[C@@H]1CO)c1ccc2c(c1)OCO2",
    "max activity": "16.7% (inactive)"
  },
  {
    "CHEM SMILES": "O=C(C[C@@H]1C=C[C@@H](NC(=O)CCN2CCCCC2)[C@H](CO)O1)Nc1ccc(-c2ccccc2)cc1",
    "max activity": "21.5% (inactive)"
  },
  {
    "CHEM SMILES": "COc1ccc(S(=O)(=O)N(C)C[C@@H]2Oc3ccc(NC(=O)CCCN(C)C)cc3CC(=O)N([C@@H](C)CO)C[C@H]2C)cc1",
    "max activity": "-7.02% [at 1.95 µM] (inactive)"
  },
  {
    "CHEM SMILES": "CO[C@H]1CN(C)C(=O)c2ccc(NC(C)=O)cc2OC[C@H](C)N(Cc2cccc(F)c2)C[C@H]1C",
    "max activity": "-6.29% [at 1.95 µM] (inactive)"
  },
  {
    "CHEM SMILES": "Cc1ccccc1-c1ccc2c(c1)O[C@H](CN(C)Cc1ccncc1)[C@@H](C)CN([C@H](C)CO)S2(=O)=O",
    "max activity": "13.6% (inactive)"
  },
  {
    "CHEM SMILES": "C[C@@H]1CN([C@H](C)CO)C(=O)Cc2cc(NC(=O)C3CC3)ccc2O[C@@H]1CN(C)Cc1ccc(Oc2ccccc2)cc1",
    "max activity": "25.1% (inactive)"
  },
  {
    "CHEM SMILES": "CCCC(=O)Nc1ccc2c(c1)C(=O)N(C)C[C@@H](OC)[C@H](C)CN(Cc1ccccc1)[C@@H](C)CO2",
    "max activity": "26.7% (inactive)"
  },
  {
    "CHEM SMILES": "C[C@@H]1CN([C@@H](C)CO)C(=O)c2cccc(NC(=O)Nc3ccc(C(F)(F)F)cc3)c2O[C@H]1CN(C)C(=O)Nc1ccccc1",
    "max activity": "29.3% (inactive)"
  },
  {
    "CHEM SMILES": "CCNC(=O)C[C@@H]1CC[C@H](NC(=O)C2CC2)[C@@H](CO)O1",
    "max activity": "-9.17% (inactive)"
  },
  {
    "CHEM SMILES": "N#C[C@H]1[C@@H](c2ccc(C3=CCCCC3)cc2)[C@H](CO)N1S(=O)(=O)c1ccccc1",
    "max activity": "-7.4% [at 1.95 µM] (inactive)"
  }
]
